- experimental-details: Metabolic stability in human liver microsomes assessed as half life measured upto 60 mins LC-MS analysis
Each entry below carries its recorded half-life at 1 h.
# value in min; strip the unit string

Worked set:
> print(dat)
                               input.smiles     property.name  measured.result
1  CCCCCCCCCCCc1ccc(/C=C2\N=C(c3ccc[nH]3)C=C2Oc2ccccc2)[nH]1.Cl  half-life at 1 h             59.2
2  Cl.FC(F)(F)Oc1ccc(COC2=CC(c3ccc[nH]3)=N/C2=C\NC23CC4CC(CC(C4)C2)C3)cc1  half-life at 1 h             45.4
3  CC(C)OC1=CC(c2ccc[nH]2)=N/C1=C\NC12CC3CC(CC(C3)C1)C2.Cl  half-life at 1 h             14.2
4  CCCCCc1cc(/C=C2\N=C(c3ccc[nH]3)C=C2OCCC)[nH]c1C.Cl  half-life at 1 h             43.6
5  CC(C)OC1=CC(c2ccc[nH]2)=N/C1=C\NC1CCCCCC1.Cl  half-life at 1 h             12.2
6  C1=C(OCc2ccccc2)/C(=C/NC2CCCCCC2)N=C1c1ccc[nH]1.Cl  half-life at 1 h             16.3

half-life at 1 h reported for this molecule C1=C(Oc2ccccc2)/C(=C/NC23CC4CC(CC(C4)C2)C3)N=C1c1ccc[nH]1.Cl : 34.7

half-life at 1 h reported for this molecule CCCOC1=CC(c2ccc[nH]2)=N/C1=C\NC12CC3CC(CC(C3)C1)C2.Cl : 32

----------
- experimental-details: Metabolic stability in mouse liver microsomes assessed as intrinsic clearance measured upto 60 mins LC-MS analysis
Output schema: class label derived from microsomal CLint at 1 h. Mapping: class A: < 20 µL/min/mg; class B: ≥ 20 µL/min/mg and < 40 µL/min/mg; class C: ≥ 40 µL/min/mg

> print(dat)
                               input.smiles  answer.label
1  Cl.Clc1ccc(OC2=CC(c3ccc[nH]3)=N/C2=C\NC23CC4CC(CC(C4)C2)C3)cc1       class A
2  C1=C(Oc2ccccc2)/C(=C/NC23CC4CC(CC(C4)C2)C3)N=C1c1ccc[nH]1.Cl       class A
3  C1=C(OCc2ccccc2)/C(=C/NC23CC4CC(CC(C4)C2)C3)N=C1c1ccc[nH]1.Cl       class A
4  CCCCCc1cc(/C=C2\N=C(c3ccc[nH]3)C=C2Oc2ccc(OC(F)(F)F)cc2)[nH]c1C.Cl       class B
5  CC(C)OC1=CC(c2ccc[nH]2)=N/C1=C\NC1CCCCCC1.Cl       class C
6  CC(C)OC1=CC(c2ccc[nH]2)=N/C1=C\NC12CC3CC(CC(C3)C1)C2.Cl       class C

-- ask Hi there! Could you help me figure out the category for C1=C(OCc2ccccc2)/C(=C/NC2CCCCCC2)N=C1c1ccc[nH]1.Cl please?
-- reply class A

-- ask Hi there! Could you help me figure out the category for CCCOC1=CC(c2ccc[nH]2)=N/C1=C\NC12CC3CC(CC(C3)C1)C2.Cl please?
-- reply class B

-- ask Hi there! Could you help me figure out the category for CCOC1=CC(c2ccc[nH]2)=N/C1=C\NC12CC3CC(CC(C3)C1)C2.Cl please?
-- reply class C

----------
- System: Plasmodium yoelii
- experimental-details: Antiplasmodial activity against asexual erythrocytic stage of Plasmodium yoelii infected in female CFI mouse model assessed as reduction in parasitemia at 25 mg/kg, po administered once daily for 4 days and measured on day 5 by Giemsa staining based microscopic analysis relative to control
- Format: functional
- Design: scale not given: the % may be the effect or the level left
- run-conditions: time 5 day
Each entry below carries its recorded Activity.
# value in %; strip the unit string

Worked set:
> print(dat)
                               input.smiles  result.units  measured.result
1  CCCCCc1cc(/C=C2\N=C(c3ccc[nH]3)C=C2OCc2ccccc2)[nH]c1C.Cl             %              100
2  CCCCCc1cc(/C=C2\N=C(c3ccc[nH]3)C=C2OC(C)C)[nH]c1C.Cl             %              100
3  CCCCCCCCCCCc1ccc(/C=C2\N=C(c3ccc[nH]3)C=C2Oc2ccccc2)[nH]1.Cl             %              100
4  CCCCCCCCCCCCN/C=C1\N=C(c2ccc[nH]2)C=C1OC(C)C.Cl             %                0
5  CCCCCCCCCCCc1ccc(/C=C2\N=C(c3ccc[nH]3)C=C2OCC)[nH]1.Cl             %              100

Activity reported for this compound CCCOC1=CC(c2ccc[nH]2)=N/C1=C\NCC(C)C.Cl : 75.4

Activity reported for this compound CCCCCCCCCCCc1ccc(/C=C2\N=C(c3ccc[nH]3)C=C2OCc2ccccc2)[nH]1.Cl : 62.3

----------
Each entry below carries its recorded IC50.
- Tested on: HepG2
- experimental-details: Cytotoxicity against human HepG2 cells assessed as cell viability incubated for 72 hrs by MTT assay
- Format: toxicity, cell-based
- run-conditions: hepg2
# value in µM; strip the unit string

Worked set:
> print(dat)
                                   molecule  property.name  result.units  measured.result
1  CCCCCCCCCCCCN/C=C1\N=C(c2ccc[nH]2)C=C1OC           IC50            µM              6.1
2  CCCCCCCCCCCCN/C=C1\N=C(c2ccc[nH]2)C=C1OC(C)C.Cl           IC50            µM             3.07
3  CCCCCCCCCCCc1ccc(/C=C2\N=C(c3ccc[nH]3)C=C2OCc2ccccc2)[nH]1.Cl           IC50            µM             53.6

IC50 reported for this molecule CC(C)OC1=CC(c2ccc[nH]2)=N/C1=C\NC12CC3CC(CC(C3)C1)C2.Cl : 1.27

IC50 reported for this molecule CCOC1=CC(c2ccc[nH]2)=N/C1=C\NC12CC3CC(CC(C3)C1)C2.Cl : 1.07

IC50 reported for this molecule CCCCCc1cc(/C=C2\N=C(c3ccc[nH]3)C=C2Oc2ccc(Cl)cc2)[nH]c1C.Cl : 9.57

IC50 reported for this molecule Cl.FC(F)(F)Oc1ccc(COC2=CC(c3ccc[nH]3)=N/C2=C\NC23CC4CC(CC(C4)C2)C3)cc1 : 3.74

IC50 reported for this molecule CCCCCc1cc(/C=C2\N=C(c3ccc[nH]3)C=C2Oc2ccccc2)[nH]c1C.Cl : 6.26

IC50 reported for this molecule CC(C)CN/C=C1\N=C(c2ccc[nH]2)C=C1OCc1ccc(Cl)cc1 : 6.96

IC50 reported for this molecule CCCOC1=CC(c2ccc[nH]2)=N/C1=C\NCC(C)C.Cl : 7.63

IC50 reported for this molecule OC(c1cc(C(F)(F)F)nc2c(C(F)(F)F)cccc12)C1CCCCN1 (centres undefined) [MEFLOQUINE] : 13.7

IC50 reported for this molecule CCCCCCCCCCCc1ccc(/C=C2\N=C(c3ccc[nH]3)C=C2OC(C)C)[nH]1.Cl : 87.3

IC50 reported for this molecule CCCCCCCCCCCCN/C=C1\N=C(c2ccc[nH]2)C=C1OCc1ccccc1.Cl : 7.74

IC50 reported for this molecule CCCCCc1cc(/C=C2\N=C(c3ccc[nH]3)C=C2OCc2ccc(Cl)cc2)[nH]c1C.Cl : 10.5

IC50 reported for this molecule CCCCCCCCCCCCN/C=C1\N=C(c2ccc[nH]2)C=C1OCCC.Cl : 4.44

IC50 reported for this molecule CC(C)OC1=CC(c2ccc[nH]2)=N/C1=C\NC1CCCCCC1.Cl : 3.58

IC50 reported for this molecule CCCCCc1cc(/C=C2\N=C(c3ccc[nH]3)C=C2OCc2ccc(OC(F)(F)F)cc2)[nH]c1C.Cl : 6.52

IC50 reported for this molecule Cl.FC(F)(F)Oc1ccc(OC2=CC(c3ccc[nH]3)=N/C2=C\NC23CC4CC(CC(C4)C2)C3)cc1 : 28.2

IC50 reported for this molecule CCCCCc1cc(/C=C2\N=C(c3ccc[nH]3)C=C2OCC)[nH]c1C.Cl : 3.68

----------
- Tested on: Plasmodium yoelii
- experimental-details: Antiplasmodial activity against asexual erythrocytic stage of Plasmodium yoelii infected in female CFI mouse model assessed as reduction in parasitemia at 25 mg/kg, po administered once daily for 4 days and measured on day 5 by Giemsa staining based microscopic analysis relative to control
- Format: functional
- Design: scale not given: the % may be the effect or the level left
- run-conditions: time 5 day
property-name: Activity
Include the unit after the number when you answer.

Worked set:
> print(dat)
                                   compound  property.name  measured.result
1  Cl.Clc1ccc(COC2=CC(c3ccc[nH]3)=N/C2=C\NC23CC4CC(CC(C4)C2)C3)cc1       Activity              40%
2  CCN(CC)CCCC(C)Nc1ccnc2cc(Cl)ccc12 (stereo not given)       Activity             100%
3  Cl.FC(F)(F)Oc1ccc(OC2=CC(c3ccc[nH]3)=N/C2=C\NC23CC4CC(CC(C4)C2)C3)cc1       Activity              83%

CCCCCCCCCCCCN/C=C1\N=C(c2ccc[nH]2)C=C1OCc1ccccc1.Cl tested on Plasmodium yoelii gave Activity: 0%

C1=C(OCc2ccccc2)/C(=C/NC2CCCCCC2)N=C1c1ccc[nH]1.Cl tested on Plasmodium yoelii gave Activity: 59.5%

CC(C)OC1=CC(c2ccc[nH]2)=N/C1=C\NC12CC3CC(CC(C3)C1)C2.Cl tested on Plasmodium yoelii gave Activity: 74.1%
